# experiment: chemical genetic growth profiling, strain panel (AID 1159580);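 note: tested at 20 µM; growth read once vehicle control cultures reached saturation at 30 °C; 1 = growth at the plate median or of vehicle wells; lower values mean less growth of the strain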
# run_conditions: S. cerevisiae deletion strains, growth OD, locus YEL061C, strain CIN8 (second series), active compounds read low
Among all 5,500 compounds or so, about 2,000 (36%) were called active. Inconclusive results (about 18%) are left out. This is one part of the list.

{"molecule": "CCS(=O)(=O)CCn1c([N+](=O)[O-])cnc1C", "normalized growth": 0.998}
{"molecule": "O=C(CCCN1CC=C(n2c(=O)[nH]c3ccccc32)CC1)c1ccc(F)cc1", "normalized growth": 0.981}
{"molecule": "COc1c(O)cc(O)cc1O", "normalized growth": 1.01}
{"molecule": "C[C@]12C=CC(=O)C=C1CCC1C2CC[C@]2(C)C(=O)CCC12 (some centres undefined)", "normalized growth": 0.988}

---

# experiment: chemical genetic growth profiling, strain panel (AID 1159580);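 note: tested at 20 µM; growth read once vehicle control cultures reached saturation at 30 °C; 1 = growth at the plate median or of vehicle wells; lower values mean less growth of the strain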
# run_conditions: S. cerevisiae deletion strains, growth OD, locus YDL185W, strain tfp1, active compounds read low
Hit rate of the full screen: of about 5,500 compounds, about 2,000 (36%) were called active. Not shown: some 18% with an inconclusive outcome. Some of the results follow.
The reader will find reported normalized growth values listed item by item below.
quantity_name: normalized growth

{"compound": "CC(C)CCCC(C)C1CCC2C3CCC4CC(=O)CCC4(C)C3CCC12C (centres undefined)", "quantity_name": "normalized growth", "experimental_result": 1.01}
{"compound": "CCNc1nc(Cl)nc(NC(C)C)n1", "quantity_name": "normalized growth", "experimental_result": 1.02}
{"compound": "Cn1c([N+](=O)[O-])cnc1COC(N)=O", "quantity_name": "normalized growth", "experimental_result": 0.978}
{"compound": "OCCN1CCN(CCCN2c3ccccc3Sc3ccc(Cl)cc32)CC1", "quantity_name": "normalized growth", "experimental_result": 0.996}

---

The reader will find reported normalized growth values listed item by item below.
# experiment: chemical genetic growth profiling, strain panel (AID 1159580);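 note: tested at 20 µM; growth read once vehicle control cultures reached saturation at 30 °C; 1 = growth at the plate median or of vehicle wells; lower values mean less growth of the strain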
# run_conditions: S. cerevisiae deletion strains, growth OD, locus YLR268W, strain sec22, active compounds read low
Among all 5,500 compounds or so, about 2,000 (36%) were called active. Another 18% or so got no clear call; they are omitted. This is one part of the list.

{"molecule": "C[C@]12C=CC(=O)C=C1CCC1C2CC[C@]2(C)C(=O)CCC12 (stereo partly drawn)", "normalized growth": 0.997}
{"molecule": "CCCCC(=O)N(Cc1ccc(-c2ccccc2-c2nn[nH]n2)cc1)[C@H](C(=O)O)C(C)C", "normalized growth": 0.977}
{"molecule": "Cc1c(N(C)CS(=O)(=O)O)c(=O)n(-c2ccccc2)n1C", "normalized growth": 0.992}

---

# experiment: chemical genetic growth profiling, strain panel (AID 1159580);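 note: tested at 20 µM; growth read once vehicle control cultures reached saturation at 30 °C; 1 = growth at the plate median or of vehicle wells; lower values mean less growth of the strain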
# run_conditions: S. cerevisiae deletion strains, growth OD, locus YNL183C, strain NPR1, active compounds read low
In all, about 5,500 compounds went through this assay and about 2,000 (36%) were called active. Not shown: some 18% with an inconclusive outcome. The list shows a part of the results.
The reader will find reported normalized growth values listed item by item below.
quantity_name: normalized growth

{"compound": "CC(=O)OC1CCC23C(=O)OC45CCC(C6=CC(=O)OC6)C4(C)CCC2C5CCC3(O)C1 (stereo not given)", "experimental_result": 0.922}
{"compound": "COc1cc(OC)c(C(C)=O)c(O)c1C", "experimental_result": 0.887}
{"compound": "COc1cc2ccc(=O)oc2cc1O", "experimental_result": 0.975}
{"compound": "O=C(c1ccc(Cl)cc1)N1CCN(c2ccc(C(F)(F)F)cn2)CC1", "experimental_result": 0.979}
{"compound": "O=C(O)c1cccc(O)c1O", "experimental_result": 0.987}
{"compound": "CCOc1nc2cccc(C(=O)OC(C)OC(=O)OC3CCCCC3)c2n1Cc1ccc(-c2ccccc2-c2nn[nH]n2)cc1 (stereo not given)", "experimental_result": 0.968}
{"compound": "Cc1ccc(C(=O)Nc2ccc3ccccc3n2)cc1", "experimental_result": 0.959}
{"compound": "O=S(=O)(Nc1ccc(-n2nc(C(F)(F)F)cc2-c2cccs2)cc1)c1ccc(F)cc1", "experimental_result": 1.02}
{"compound": "O=C(SCc1c(Cl)cccc1Cl)c1ccc([N+](=O)[O-])o1", "experimental_result": 0.438}
{"compound": "CC(C)=CCOc1c2occc2cc2ccc(=O)oc12", "experimental_result": 0.912}

Source listed as PubChem BioAssay AID1159580.
